Please go through the items and note down their GI50.
System: PC-3 prostate
Assay: NCI tumour cell line growth inhibition, 48 h

Here is how some compounds turned out for GI50.
SMILES ENTRY: COc1ccc2c(c1)[nH]c(=O)c1c3cc(C)c(C)cc3cn21
MEAS VALUE: < 10 nM
//
SMILES ENTRY: CC(=O)O[C@H]1CC[C@@]2(C)C(=CC[C@@H]3[C@@H]2CC[C@]2(C)C(c4cccnc4)=CC[C@@H]32)C1
MEAS VALUE: 3980 nM
//
SMILES ENTRY: CCOC(=O)c1c2c(n3ccc(NC(=O)CCN4CCCC4)cc13)C(=O)c1ncccc1C2=O
MEAS VALUE: 1310 nM

Would you be so kind as to report GI50 for each listed record?
1. COc1cc(-c2nn(-c3ccc(NC(=O)c4ccc(Cl)c(Cl)c4)cc3)cc2-c2ccncc2)ccc1Cl
2. C=C1C(=O)O[C@H]2[C@H]1CC/C(COC(=O)c1cc3cc(F)ccc3[nH]1)=C\CC[C@@]1(C)O[C@@H]21
3. COC(=O)N[C@H]1CCc2c(Br)c(OC)c(OC)c(OC)c2-c2ccc(SC)c(=O)cc21
4. CN(C)c1cccc2c(S(=O)(=O)N[C@H]3CC[C@H]4[C@@H]5CCc6cc(O)ccc6[C@H]5CC[C@]34C)cccc12
5. COc1cc(/C(C#N)=C/c2ccc3c(c2OC)OCO3)cc2c1OCO2

1: 6280 nM; 2: 1700 nM; 3: < 10 nM; 4: 2360 nM; 5: 96.7 nM

Sourced from PubChem BioAssay (NCI)
